Ref: patent US20240246968A1

Tested on: MIA PaCa-2 cells
MEASUREMENT PROTOCOL: Growth inhibition activity on KRAS-G12C mutant cell line (MIA PaCa-2), CellTiter-Glo 3D
Type: cell-based, human
RECORDED CONDITIONS: MIA PaCa-2, 3-day culture with compound
READOUT KIND: pIC50
# pIC50 = -log10(concentration in molar units)

Below, each entry is followed by its recorded pIC50 result.
[[record]]
compound = "Cc1cc2c(ncn2C)c(Cl)c1-c1cccn2c(C(=O)c3cc(F)c(NC(=O)/C=C/CNC4CCOCC4)c(F)c3)ccc12 (single isomer, unassigned) [Example 27-2]"
result_value = 6.28

[[record]]
compound = "CO[C@H](C)c1nc2c(Cl)c(-c3cccn4c(C(=O)c5cc(F)c(NC(=O)/C=C/CN[C@H]6CC[C@H](OC)CC6)c(F)c5)ccc34)c(C)cc2n1C (single isomer, unassigned) [Example 47]"
result_value = 7.12

[[record]]
compound = "COc1c(-c2cccn3c(C(=O)c4cc(F)c(NC(=O)/C=C/CN[C@H]5CC[C@H](OC)CC5)c(F)c4)ccc23)c(C)cc2c1nc(C)n2C (single isomer, unassigned) [Example 39-1]"
result_value = 6.46

[[record]]
compound = "CO[C@H]1CC[C@H](NC/C=C/C(=O)Nc2c(F)cc(C(=O)c3ccc4c(-c5c(C(F)(F)F)cc6c(ncn6C)c5Cl)cccn34)cc2F)CC1 (single isomer, unassigned) [Example 28-2]"
result_value = 6.03


Now consider the entry below.
Query :: Tell me measured pIC50 for COc1c(-c2cc(F)cn3c(C(=O)c4cc(F)c(NC(=O)/C=C/CNC5(C)CC5)c(F)c4)cnc23)c(C(F)(F)F)cc2c1nc(C)n2C (single isomer, unassigned) [Example 112-1] please.
Result :: 7.37

* * *

System: MIA PaCa-2 cells
MEASUREMENT PROTOCOL: Growth inhibition activity on KRAS-G12C mutant cell line (MIA PaCa-2), CellTiter-Glo 3D
Assay type: cell-based, human
RECORDED CONDITIONS: Homo sapiens, MIA PaCa-2, 72 h, MIA PaCa-2, 3-day culture with compound
Procedure: MIA PaCa-2 cells (given by Sumitomo Dainippon Pharma Co., Ltd.), which are a KRAS-G12C mutant human pancreas cancer cell line, were suspended in a 10% fetal bovine serum-containing RPMI1640 medium (manufactured by Fujifilm Wako Pure Chemical Corporation.). […] The cell count after 3-day culture in the presence of the test compound was measured using CellTiter-Glo 3D Reagent (manufactured by Promega Corporation). […] 30 minutes after mixing, luminescence was measured by a plate reader. […]
READOUT KIND: pIC50
# pIC50 = -log10(concentration in molar units)

Below, each entry is followed by its recorded pIC50 result.
[[record]]
smiles_record = "Cc1nc2cc(-c3cccn4c(C(=O)c5cc(F)c(NC(=O)/C=C/CNC6(C)CCOCC6)c(F)c5)ccc34)c(C(F)(F)F)cc2n1C"
result_value = 7.09

[[record]]
smiles_record = "COc1cc(N2CCCC2=O)cc(Cl)c1-c1cccn2c(C(=O)c3cc(F)c(NC(=O)/C=C/CNC(C)(C)C)c(F)c3)ccc12"
result_value = 6.74

[[record]]
smiles_record = "COc1cc2c(c(F)c1-c1cccn3c(C(=O)c4cc(F)c(NC(=O)/C=C/CNC5(C)CC5)c(F)c4)ccc13)c(=O)ncn2C"
result_value = 5.97

[[record]]
smiles_record = "Cc1nc2c(-c3cc4nc(C)n(C)c4cc3C(F)(F)F)cccn2c1C(=O)c1cc(F)c(NC(=O)/C=C/CNC(C)(C)C)c(F)c1"
result_value = 6.72

[[record]]
smiles_record = "Cc1nc2cc(-c3cccn4c(C(=O)c5cc(F)c(NC(=O)/C=C/CNC6(CO)CCCCC6)c(F)c5)ccc34)c(C(F)(F)F)cc2n1C"
result_value = 6.47


Now consider the entry below.
Query :: Tell me measured pIC50 for CCc1cc2c(ncn2C)c(Cl)c1-c1cccn2c(C(=O)c3cc(F)c(NC(=O)/C=C/CN[C@H]4CC[C@H](OC)CC4)c(F)c3)ccc12 please.
Result :: 7.03

* * *

System: MIA PaCa-2 cells
MEASUREMENT PROTOCOL: Growth inhibition activity on KRAS-G12C mutant cell line (MIA PaCa-2), CellTiter-Glo 3D
Assay type: cell-based, human
RECORDED CONDITIONS: Homo sapiens, MIA PaCa-2, 72 h, MIA PaCa-2, 3-day culture with compound
Measured pIC50 values are reported for all entries that follow.
# pIC50 = -log10(concentration in molar units)

Below, each entry is followed by its recorded pIC50 result.
[[record]]
compound = "Cc1cc2c(nc(CC#N)n2C)c(Cl)c1-c1cccn2c(C(=O)c3cc(F)c(NC(=O)/C=C/CNC(C)(C)C)c(F)c3)ccc12 [Example 74]"
result_value = 7.19

[[record]]
compound = "Cc1nc2cc(-c3cccn4c(C(=O)c5cc(F)c(NC(=O)/C=C/CNC6CC7CCC(C6)O7)c(F)c5)ccc34)c(C(F)(F)F)cc2n1C (stereo not drawn) [Example 79]"
result_value = 6.96

[[record]]
compound = "COc1c(-c2cccn3c(C(=O)c4cc(F)c(NC(=O)/C=C/CNC(C)(C)C)c(F)c4)ccc23)c(C(F)(F)F)cc2c1nc(C)n2C [Example 53]"
result_value = 7.66

[[record]]
compound = "COc1cc2c(cc1-c1cccn3c(C(=O)c4cc(F)c(NC(=O)/C=C/CNC(C)(C)C)c(F)c4)ccc13)nc(C)n2C [Example 5]"
result_value = 7.35


Now consider the entry below.
Query :: Tell me measured pIC50 for Cc1nc2cc(-c3cccn4c(C(=O)c5cc(F)c(NC(=O)/C=C/CNC67CCC(F)(CC6)CC7)c(F)c5)ccc34)c(C(F)(F)F)cc2n1C [Example 85] please.
Result :: 6.96

* * *

SYSTEM NAME: interaction between recombinant K-Ras4B G12C mutant protein and cRAF RAS-binding domain (cRAF-RBD) (Homo sapiens, UniProt P01116, G12C)
Sequence (P01116 with tags, fused parts or gaps isoform P01116-2 G12C): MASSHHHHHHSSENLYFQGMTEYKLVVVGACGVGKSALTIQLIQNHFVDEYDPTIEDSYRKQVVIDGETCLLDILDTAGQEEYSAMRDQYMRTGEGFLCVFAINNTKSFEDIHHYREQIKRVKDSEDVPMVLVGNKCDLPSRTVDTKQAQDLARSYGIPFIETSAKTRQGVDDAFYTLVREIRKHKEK
MEASUREMENT PROTOCOL: Inhibitory activity on interaction between KRAS G12C and cRAF (Alpha technology)
RECORDED CONDITIONS: GMPPNP-bound KRAS G12C incubated with compound at 25° C. for 1 hour, then cRAF-RBD; Alpha signal
READOUT KIND: pIC50
# pIC50 = -log10(concentration in molar units)

Below, each entry is followed by its recorded pIC50 result.
[[record]]
molecule = "Cc1nc2cc(-c3cccn4c(C(=O)c5cc(F)c(NC(=O)/C=C/CNC6(CO)CCOCC6)c(F)c5)ccc34)c(C(F)(F)F)cc2n1C"
result_value = 7.15

[[record]]
molecule = "CO[C@H]1CC[C@H](NC/C=C/C(=O)Nc2c(F)cc(C(=O)c3ccc4c(-c5c(Cl)cc6c(ncn6C)c5Cl)cccn34)cc2F)CC1 (single isomer, unassigned) [Example 15-1]"
result_value = 7.38

[[record]]
molecule = "COc1c(-c2cccn3c(C(=O)c4cc(F)c(NC(=O)/C=C/CNC5(C)CC5)c(F)c4)c(C)nc23)c(C(F)(F)F)cc2c1nc(C)n2C (single isomer, unassigned) [Example 109-1]"
result_value = 7.72

[[record]]
molecule = "Cc1nc2cc(-c3cccn4c(C(=O)c5cc(F)c(NC(=O)/C=C/CN[C@H]6CCOC6)c(F)c5)ccc34)c(C(F)(F)F)cc2n1C"
result_value = 7.10

[[record]]
molecule = "Cc1nc2cc(-c3cccn4c(C(=O)c5cc(F)c(NC(=O)/C=C/CNC6(C)CCOCC6)c(F)c5)ccc34)c(C(F)(F)F)cc2n1C"
result_value = 7.21


Now consider the entry below.
Query :: Tell me measured pIC50 for CCc1cc2c(nc(C)n2C)c(Cl)c1-c1cccn2c(C(=O)c3cc(F)c(NC(=O)/C=C/CN[C@H]4CC[C@H](OC)CC4)c(F)c3)ccc12 (single isomer, unassigned) [Example 22-2] please.
Result :: 6.96

* * *

Tested on: MIA PaCa-2 cells
MEASUREMENT PROTOCOL: Growth inhibition activity on KRAS-G12C mutant cell line (MIA PaCa-2), CellTiter-Glo 3D
Format: cell-based, human
RECORDED CONDITIONS: MIA PaCa-2, 3-day culture with compound
READOUT KIND: pIC50
# pIC50 = -log10(concentration in molar units)

[[record]]
molecule = "COc1c(-c2cccn3c(C(=O)c4cc(F)c(NC(=O)/C=C/CNC5(C)CC5)c(F)c4)c(C)nc23)c(C(F)(F)F)cc2c1nc(C)n2C (single isomer, unassigned) [Example 109-1]"
system_name = "MIA PaCa-2 cells"
readout_kind = "pIC50"
result_value = 7.67


Query :: Tell me measured pIC50 for COc1cc2c(nc(C)n2C)c(Cl)c1-c1cccn2c(C(=O)c3cc(F)c(NC(=O)/C=C/CN[C@H]4CC[C@H](OC)CC4)c(F)c3)ccc12 (single isomer, unassigned) [Example 35-2] please.
Result :: 7.14

Query :: Tell me measured pIC50 for COc1cc(N2CCCC2=O)cc(Cl)c1-c1cccn2c(C(=O)c3cc(F)c(NC(=O)/C=C/CN[C@H]4CC[C@H](OC)CC4)c(F)c3)ccc12 (single isomer, unassigned) [Example 30-1] please.
Result :: 6.44

Query :: Tell me measured pIC50 for CCc1cc2c(nc(C)n2C)c(Cl)c1-c1cccn2c(C(=O)c3cc(F)c(NC(=O)/C=C/CN[C@H]4CC[C@H](OC)CC4)c(F)c3)ccc12 (single isomer, unassigned) [Example 22-1] please.
Result :: 7.14

Query :: Tell me measured pIC50 for Cc1cc2c(ncn2C)c(Cl)c1-c1cccn2c(C(=O)c3cc(F)c(NC(=O)/C=C/CNC4CCOCC4)c(F)c3)ccc12 (single isomer, unassigned) [Example 27-1] please.
Result :: 6.92
